test description: in vivo
measurement context: male, Wistar, rat, po, 10 mg/kg
Starred links: 1 amine or outer side, 2 acyl side, 3 side chain; linkers in the order of their positions; H or OH if unused. Non-standard residues stand in square brackets, D forms with d. Residues, ends and D or L forms follow the SMILES beside them. X3 = CC(C)C[C@H](N[*:1])C(=S)N[C@H](CC(C)C)C(=O)[*:2]; NMeL = CN[C@@H](CC(C)C)C(=O)O
result type: level at 3 h

molecule="CC(C)C[C@@H]1NC(=O)[C@H](Cc2ccc(O)cc2)NC(=O)[C@H]2CCCN2C(=O)[C@H](CC(C)C)NC(=O)[C@H](CC(C)C)N(C)C(=O)[C@@H](CC(C)C)NC1=O [10h] (cyclo(L[dL][NMeL]L[dP]Y))" observed="3.2 ng/mL"
molecule="CC(C)C[C@@H]1NC(=O)[C@@H](CC(C)C)NC(=S)[C@H](CC(C)C)NC(=O)[C@H](Cc2ccc(O)cc2)NC(=O)[C@H]2CCCN2C(=O)[C@H](CC(C)C)NC1=O [10f] (cyclo(LL[dP]Y[X3]))" observed="13.1 ng/mL"

###

test description: in vitro
measurement context: human, microsomes
Starred links: 1 amine or outer side, 2 acyl side, 3 side chain; linkers in the order of their positions; H or OH if unused. Non-standard residues stand in square brackets, D forms with d. Residues, ends and D or L forms follow the SMILES beside them. X1 = CC(C)C[C@H](NC(=S)[C@H](Cc1ccc(O)cc1)N[*:1])C(=O)[*:2]; X6 = O=C([C@H](Cc1ccc(O)cc1)NC(=S)[C@H]1CCCN1[*:1])[*:2]; X2 = CC(C)C[C@H](NC(=S)[C@@H](CC(C)C)N[*:1])C(=O)[*:2]; X3 = CC(C)C[C@H](N[*:1])C(=S)N[C@H](CC(C)C)C(=O)[*:2]; X5 = CC(C)C[C@H](NC(=S)[C@H](CC(C)C)N[*:1])C(=O)[*:2]; NMeY = CN[C@@H](Cc1ccc(O)cc1)C(=O)O; NMeL = CN[C@@H](CC(C)C)C(=O)O
result type: remaining at 0.5 h (%)

molecule="CC(C)C[C@@H]1NC(=O)[C@@H](CC(C)C)NC(=O)[C@H](CC(C)C)NC(=S)[C@H](Cc2ccc(O)cc2)NC(=O)[C@H]2CCCN2C(=O)[C@H](CC(C)C)NC1=O [10e] (cyclo(LL[dP][X1][dL]))" result_type="remaining at 0.5 h" observed=47
molecule="CC(C)C[C@@H]1NC(=O)[C@@H](CC(C)C)NC(=O)[C@H](CC(C)C)N(C)C(=O)[C@H](Cc2ccc(O)cc2)NC(=O)[C@H]2CCCN2C(=O)[C@H](CC(C)C)NC1=O [10k] (cyclo(LL[dP]Y[NMeL][dL]))" result_type="remaining at 0.5 h" observed=16
molecule="CC(C)C[C@@H]1NC(=O)[C@H](Cc2ccc(O)cc2)NC(=O)[C@H]2CCCN2C(=O)[C@H](CC(C)C)NC(=O)[C@H](CC(C)C)NC(=S)[C@@H](CC(C)C)NC1=O [10a] (cyclo(L[dP]YL[X2]))" result_type="remaining at 0.5 h" observed=58
molecule="CC(C)C[C@@H]1NC(=O)[C@H](Cc2ccc(O)cc2)NC(=S)[C@H]2CCCN2C(=O)[C@H](CC(C)C)NC(=O)[C@H](CC(C)C)NC(=O)[C@@H](CC(C)C)NC1=O [10d] (cyclo(LL[X6]L[dL]))" result_type="remaining at 0.5 h" observed=50
molecule="CC(C)C[C@@H]1NC(=O)[C@H](Cc2ccc(O)cc2)NC(=O)[C@H]2CCCN2C(=O)[C@H](CC(C)C)NC(=S)[C@H](CC(C)C)NC(=O)[C@@H](CC(C)C)NC1=O [10b] (cyclo(L[dL][X5][dP]Y))" result_type="remaining at 0.5 h" observed=34
molecule="CC(C)C[C@@H]1NC(=O)[C@@H](CC(C)C)NC(=O)[C@H](CC(C)C)NC(=O)[C@H](Cc2ccc(O)cc2)N(C)C(=O)[C@H]2CCCN2C(=O)[C@H](CC(C)C)NC1=O [10j] (cyclo(LL[dP][NMeY]L[dL]))" result_type="remaining at 0.5 h" observed=46
molecule="CC(C)C[C@@H]1NC(=O)[C@H](Cc2ccc(O)cc2)NC(=O)[C@H]2CCCN2C(=O)[C@H](CC(C)C)NC(=O)[C@H](CC(C)C)N(C)C(=O)[C@@H](CC(C)C)NC1=O [10h] (cyclo(L[dL][NMeL]L[dP]Y))" result_type="remaining at 0.5 h" observed=49
molecule="CC(C)C[C@@H]1NC(=O)[C@@H](CC(C)C)NC(=S)[C@H](CC(C)C)NC(=O)[C@H](Cc2ccc(O)cc2)NC(=O)[C@H]2CCCN2C(=O)[C@H](CC(C)C)NC1=O [10f] (cyclo(LL[dP]Y[X3]))" result_type="remaining at 0.5 h" observed=56
molecule="CC(C)C[C@@H]1NC(=O)[C@H](Cc2ccc(O)cc2)NC(=O)[C@H]2CCCN2C(=O)[C@H](CC(C)C)N(C)C(=O)[C@H](CC(C)C)NC(=O)[C@@H](CC(C)C)NC1=O [10i] (cyclo(L[NMeL][dP]YL[dL]))" result_type="remaining at 0.5 h" observed=19

###

test target: pepsin (Sus scrofa)
Sequence (P00791 60-385): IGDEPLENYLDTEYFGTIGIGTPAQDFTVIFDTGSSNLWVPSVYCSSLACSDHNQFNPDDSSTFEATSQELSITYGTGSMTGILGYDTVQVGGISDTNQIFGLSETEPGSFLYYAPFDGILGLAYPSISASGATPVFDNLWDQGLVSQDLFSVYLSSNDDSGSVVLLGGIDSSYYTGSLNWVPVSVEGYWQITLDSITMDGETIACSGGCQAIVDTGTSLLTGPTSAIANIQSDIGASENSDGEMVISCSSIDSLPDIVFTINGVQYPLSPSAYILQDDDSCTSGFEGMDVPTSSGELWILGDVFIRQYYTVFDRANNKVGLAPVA
test description: in vitro
measurement context: simulated gastric fluid, pH 1.2
Non-standard residues stand in square brackets, D forms with d. Residues, ends and D or L forms follow the SMILES beside them. NMeY = CN[C@@H](Cc1ccc(O)cc1)C(=O)O; NMeL = CN[C@@H](CC(C)C)C(=O)O
result type: remaining at 4 h (%)

molecule="CC(C)C[C@@H]1NC(=O)[C@H](Cc2ccc(O)cc2)NC(=O)[C@H]2CCCN2C(=O)[C@H](CC(C)C)NC(=O)[C@H](CC(C)C)NC(=O)[C@@H](CC(C)C)NC1=O [compound 10, cyclo(-D-Leu^1-Leu-Leu-D-Pro-Tyr-Leu^6-)] (cyclo(LL[dP]YL[dL]))" observed=10
molecule="CC(C)C[C@@H]1NC(=O)[C@H](Cc2ccc(O)cc2)NC(=O)[C@H]2CCCN2C(=O)[C@H](CC(C)C)N(C)C(=O)[C@H](CC(C)C)NC(=O)[C@@H](CC(C)C)NC1=O [10i] (cyclo(L[NMeL][dP]YL[dL]))" observed=5
molecule="CC(C)C[C@@H]1NC(=O)[C@@H](CC(C)C)NC(=O)[C@H](CC(C)C)NC(=O)[C@H](Cc2ccc(O)cc2)N(C)C(=O)[C@H]2CCCN2C(=O)[C@H](CC(C)C)NC1=O [10j] (cyclo(LL[dP][NMeY]L[dL]))" observed=0
molecule="CC(C)C[C@@H]1NC(=O)[C@@H](CC(C)C)NC(=O)[C@H](CC(C)C)N(C)C(=O)[C@H](Cc2ccc(O)cc2)NC(=O)[C@H]2CCCN2C(=O)[C@H](CC(C)C)NC1=O [10k] (cyclo(LL[dP]Y[NMeL][dL]))" observed=19

###

Recorded remaining at 12 h by entry
test description: in vitro
measurement context: pig, simulated intestinal fluid
Starred links: 1 amine or outer side, 2 acyl side, 3 side chain; linkers in the order of their positions; H or OH if unused. Non-standard residues stand in square brackets, D forms with d. Residues, ends and D or L forms follow the SMILES beside them. X1 = CC(C)C[C@H](NC(=S)[C@H](Cc1ccc(O)cc1)N[*:1])C(=O)[*:2]; X2 = CC(C)C[C@H](NC(=S)[C@@H](CC(C)C)N[*:1])C(=O)[*:2]; X5 = CC(C)C[C@H](NC(=S)[C@H](CC(C)C)N[*:1])C(=O)[*:2]; X4 = CC(C)C[C@H](N[*:1])C(=S)N1CCC[C@@H]1C(=O)[*:2]; NMeL = CN[C@@H](CC(C)C)C(=O)O; dNMeL = CN[C@H](CC(C)C)C(=O)O
result type: remaining at 12 h (%)

compound="CC(C)C[C@@H]1NC(=O)[C@@H](CC(C)C)NC(=O)[C@H](CC(C)C)NC(=S)[C@H](Cc2ccc(O)cc2)NC(=O)[C@H]2CCCN2C(=O)[C@H](CC(C)C)NC1=O [10e] (cyclo(LL[dP][X1][dL]))" observed=27.5
compound="CC(C)C[C@@H]1NC(=O)[C@H](Cc2ccc(O)cc2)NC(=O)[C@H]2CCCN2C(=O)[C@H](CC(C)C)NC(=S)[C@H](CC(C)C)NC(=O)[C@@H](CC(C)C)NC1=O [10b] (cyclo(L[dL][X5][dP]Y))" observed=16.6
compound="CC(C)C[C@@H]1NC(=O)[C@H](Cc2ccc(O)cc2)NC(=O)[C@H]2CCCN2C(=S)[C@H](CC(C)C)NC(=O)[C@H](CC(C)C)NC(=O)[C@@H](CC(C)C)NC1=O [10c] (cyclo(L[dL]L[X4]Y))" observed=20.6
compound="CC(C)C[C@@H]1NC(=O)[C@H](Cc2ccc(O)cc2)NC(=O)[C@H]2CCCN2C(=O)[C@H](CC(C)C)NC(=O)[C@H](CC(C)C)NC(=S)[C@@H](CC(C)C)NC1=O [10a] (cyclo(L[dP]YL[X2]))" observed=18.8
compound="CC(C)C[C@@H]1NC(=O)[C@@H](CC(C)C)N(C)C(=O)[C@H](CC(C)C)NC(=O)[C@H](Cc2ccc(O)cc2)NC(=O)[C@H]2CCCN2C(=O)[C@H](CC(C)C)NC1=O [10g] (cyclo(LL[dP]YL[dNMeL]))" observed=0
compound="CC(C)C[C@@H]1NC(=O)[C@@H](CC(C)C)NC(=O)[C@H](CC(C)C)N(C)C(=O)[C@H](Cc2ccc(O)cc2)NC(=O)[C@H]2CCCN2C(=O)[C@H](CC(C)C)NC1=O [10k] (cyclo(LL[dP]Y[NMeL][dL]))" observed=3
